Entry source: patent US11352401

biological target: T1, HLA-B*08 (human); assay: UV peptide-exchange ELISA; +++ = yield >50%
T1 construct: MHC monomer made peptide-receptive by UV cleavage of a UV-sensitive ligand; also called peptide-receptive MHC class I monomer
parameter measured: peptide exchange yield

1. VIKEKALTL [VIKEKALTL (SEQ ID NO: 316)]
50 to 75%
2. VASPKHCVL [VASPKHCVL (SEQ ID NO: 300)]
50 to 75%
3. HLLQKQTSI [HLLQKQTSI (SEQ ID NO: 302)]
50 to 75%
4. FNKRKPLSL [FNKRKPLSL (SEQ ID NO: 298)]
50 to 75%
5. DAIQRKYSC [DAIQRKYSC (SEQ ID NO: 309)]
50 to 75%
